Biological target: Substance-P receptor (Homo sapiens)
Sequence (P25103 whole entry): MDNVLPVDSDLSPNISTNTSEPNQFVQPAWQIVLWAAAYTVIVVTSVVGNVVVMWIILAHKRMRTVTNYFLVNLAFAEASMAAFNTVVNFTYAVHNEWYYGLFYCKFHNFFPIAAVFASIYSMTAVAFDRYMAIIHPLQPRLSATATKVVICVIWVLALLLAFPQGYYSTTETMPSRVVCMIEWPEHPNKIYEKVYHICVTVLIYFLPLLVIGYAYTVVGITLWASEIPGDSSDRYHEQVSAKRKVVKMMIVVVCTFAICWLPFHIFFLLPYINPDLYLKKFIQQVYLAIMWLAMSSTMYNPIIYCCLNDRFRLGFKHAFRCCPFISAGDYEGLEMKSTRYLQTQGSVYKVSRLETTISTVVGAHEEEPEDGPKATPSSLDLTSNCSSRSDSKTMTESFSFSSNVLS
Test: In vitro binding affinity towards human NK-1 receptor in IM-9 cells using [3H]SP of substance P antagonist
REPORTED PROPERTY: Ki

Tell me the measured Ki of COc1ccccc1CN[C@H]1[C@@H]2CCC[C@@H]2N[C@H]1c1ccccc1 (racemic) , please.
2.4 nM

Origin of values: ChEMBL document CHEMBL1127656
